Data provenance: the supplement of paper PMC11417369

- System: PfSIP2 AP2 domain 1 (GST-tagged)
- protocol.details: gcPBM binding intensity (ln(normalized median fluorescence intensity)); higher = stronger DNA binding
The full ranking holds about 25,000 sequences; the median of “ln(normalized median fluorescence intensity)” is about 7.1, and the highest 2% start at about 10. The list comes from a sample in which the highest values are over-represented; it also holds close analogues and randomly drawn sequences.
Group membership follows gcPBM binding intensity (ln) per the scheme bottom (below 7), middle (7 to below 10), top (10 or more)

Example entries and their recorded answers appear below.
AATATAATATAATGCACACATAAAAAAAAAAAAAAA [CACACA_site304] : middle
TTTTTTTTTGGGGGTGCATGCAAGACATATATTTAA [TGCATGCA_site228] : top
TCAAATATTCATAAATGTACATTTATTTTTCTCCTT [XGTACX_site5827] : bottom
AATTTATTTTTAAAAAGTACATACTTAAGAAAACGA [XGTACX_site3660] : middle
AATATATGTAAATGGACACACACATATATATATATA [CACACA_site9220] : middle
GCATATGATGAGCATATAATCATAAGAAAAAAAAAA [CACACA_negctrl_site701] : bottom
AAAAAAAAAAAAAGAACACACACAGTGCACATTCGG [CACACA_site8163] : top
TTTTTATTTTATAATATATTCCTTTTCCTTTCTTTC [CACACA_negctrl_site245] : bottom

Query sequence follows.
Challenge: # bin label for CTGTACACTTAAACGGTGCAAAAAGAAAAAAAAGAA
Response given: top

* * *

- System: PfSIP2 AP2 domain 1 (GST-tagged)
- protocol.details: gcPBM binding intensity (ln(normalized median fluorescence intensity)); higher = stronger DNA binding
In all, about 25,000 sequences were measured (“ln(normalized median fluorescence intensity)”: median about 7.1, highest 2% from about 10 on). This is one part of a sample in which the highest values are shown more often than they occur.
measured.attribute: gcPBM binding intensity (ln)

TATTATATATATGCACGTACAAAAATAATAAAGGTA [XGTACX_site3506] : 7.71
TTTTTTTTTATAAATACACACGTACGGGTGCATAAC [CACACA_site8444] : 11.3
ACAATAAAGAACAGTATGCACTTTTATGCATGCGTA : 8.94
CATATATATTTGTTCACACACACACTAGAAAAAAAA [CACACA_site5380] : 7.29
AGCATTTTAAGTTATACACACATTTTGAATCTATAT [CACACA_site7599] : 6.89
AAGATAATTACGCACACACACACACGCCCACAACTA [CACACA_site7255] : 7.34
AGCTATATAAATAATACATGCATTGTTCAGGTATTT [TGCATGCA_site964] : 6.83
CATACATTATAAGATACATGCATATATCTGAACATA [TGCATGCA_site797] : 7.02
CATTTTTTTTTATAAATACACACGTACGGGTGCATA [CACACA_site1569] : 10.9

Turning to the following sequence.
Challenge: # gcPBM binding intensity (ln) lookup, item ATAACAAAATGAAGAGTGCATTACCAAGTGGGTAAA [GTGCAC_site9450]
Response given: 8.64

* * *

- Test system: PfSIP2 AP2 domain 1 (GST-tagged)
- protocol.details: gcPBM binding intensity (ln(normalized median fluorescence intensity)); higher = stronger DNA binding
The full ranking holds about 25,000 sequences; the median of “ln(normalized median fluorescence intensity)” is about 7.1, and the highest 2% start at about 10. Only a selection was taken, and the highest values are over-represented in it overall.
measured.attribute: gcPBM binding intensity (ln)
Note: the reply should be a number with no unit written.

Examples from the recorded data:
ATATCGTTATTTTTATGTACTAAAATATTTAATTAT [XGTACX_site3516] : 7.09
TTTTGTTCATACAAATTGGAACAAGACAAAAATATA [XGTACX_negctrl_site327] : 7.16
ATATATTTAAAAAAATGTACAAATCATAAATGCAAG [XGTACX_site4230] : 7.07
AATATACATAACAAGGTGCAAAAAATATTGTTCATA [GTGCAC_site9499] : 10.9

Turning to the following sequence.
Challenge: # gcPBM binding intensity (ln) lookup, item ATACATTCAAAATATACACACATATATATATAATAT [CACACA_site950]
Response given: 7.13
